Measured values drawn from patent US7943636B2 for this set.

Please provide measured melting point for the entries that follow.

Some entries whose results are on file:
> print(dat)
                               query.smiles   readout.type            meas.value
1  CCn1nc2c(N)nc3ccccc3c2c1CC1(O)CCN(S(C)(=O)=O)CC1  melting point         268 to 270 °C
2  CCCn1nc2c(N)nc3ccccc3c2c1CC1(F)CCN(S(C)(=O)=O)CC1  melting point  268 to 270 °C (dec.)

stdin: Consider the compound shown here: CCn1nc2c(N)nc3ccccc3c2c1CC1(F)CCN(S(C)(=O)=O)CC1 What is its recorded melting point?
stdout: 269 to 271 °C

====

Please provide measured melting point for the entries that follow.

> print(dat)
                               query.smiles   readout.type       meas.value
1  CC(C)NC(=O)N1CCC(F)(Cc2c3c(nn2C)c(N)nc2ccccc23)CC1  melting point    241 to 244 °C
2        CCCn1nc2c(N)nc3ncccc3c2c1CC1CCOCC1  melting point    252 to 255 °C
3  CCn1nc2c(N)nc3ccccc3c2c1CC1(F)CCN(C(=O)NC(C)C)CC1  melting point    205 to 207 °C
4      CCn1nc2c(N)nc3ccccc3c2c1CC1(O)CCSCC1  melting point  251.5 to 255 °C
5        CCn1nc2c(N)nc3ccccc3c2c1CC1(O)CCC1  melting point    245 to 247 °C
6  CC(=O)N1CCC(F)(Cc2c3c(nn2C)c(N)nc2ccccc23)CC1  melting point    241 to 243 °C
7       CCCn1nc2c(N)nc3ccccc3c2c1CC1(O)CCC1  melting point    191 to 193 °C
8      CCn1nc2c(N)nc3ccccc3c2c1CC1(O)CCOCC1  melting point    253 to 255 °C

Fill in melting point for each of the 2 molecules listed.
1. CCn1nc2c(N)nc3ccccc3c2c1CC1(F)CCN(C(C)=O)CC1
2. COCCn1nc2c(N)nc3ncccc3c2c1CC1CCOCC1

stdout:
228 to 230 °C
230 to 233 °C

Fill in melting point for each of the 2 molecules listed.
1. CCCn1nc2c(N)nc3ccccc3c2c1CC1(F)CCN(C(=O)NC(C)C)CC1
2. COCCn1nc2c(N)nc3ccccc3c2c1CC1CCOCC1

stdout:
1: 227 to 229 °C (dec.); 2: 189 to 190 °C

Fill in melting point for each of the 8 molecules listed.
1. Cn1nc2c(N)nc3ccccc3c2c1CC1(O)CCOCC1
2. CCn1nc2c(N)nc3ccccc3c2c1CC1(O)CCCC1
3. CCn1nc2c(N)nc3ccccc3c2c1CC1(F)CCOCC1
4. CCCn1nc2c(N)nc3ccccc3c2c1CC1CCOCC1
5. Cn1nc2c(N)nc3ccccc3c2c1CC1(F)CCN(S(C)(=O)=O)CC1
6. CCn1nc2c(N)nc3ccccc3c2c1CC1CCOCC1
7. CCn1nc2c(N)nc3ccccc3c2c1CC1(O)CCCCC1
8. CCCNC(=O)N1CCC(O)(Cc2c3c(nn2CC)c(N)nc2ccccc23)CC1

stdout:
1. 260 to 262 °C (dec.)
2. 256 to 259 °C
3. 275 to 277 °C
4. 218 to 220 °C
5. 283 to 285 °C
6. 226 to 228 °C
7. 211.5 to 213 °C
8. 208.5 to 210 °C

====

Please provide measured melting point for the entries that follow.

> print(dat)
                             query.smiles   readout.type     meas.value
1  CCn1nc2c(N)nc3c(c2c1CC1(O)CCCCC1)CCCC3  melting point  232 to 234 °C
2     Cn1nc2c(N)nc3ccccc3c2c1CC1(F)CCOCC1  melting point  252 to 254 °C
3   CCCn1nc2c(N)nc3ccccc3c2c1CC1(O)CCOCC1  melting point  209 to 211 °C

stdin: Consider the molecule shown here: CCn1nc2c(N)nc3ccccc3c2c1CC1(O)CCN(C(C)=O)CC1 What is its recorded melting point?
stdout: 231 to 232.5 °C
